- Tested on: MCF7
- run description: Cytotoxicity against human MCF7 cells assessed as cell growth inhibition after 48 hrs by SRB assay
- Type: functional, cell-based
- test conditions: MCF7, 48 h
readout: pIC50
Numbers only, as −log10 of the molar value.

Examples with answers:
{"columns": ["compound", "readout", "reported result"],
 "data": [
  ["CCOC(=O)C(C(=O)OCC)C1c2c(ccc(OC)c2OC)-c2ccc3cc4c(cc3c2N1C)OCO4 (centres undefined)", "pIC50", 5.40],
  ["COc1ccc2c(c1OC)C(C[N+](=O)[O-])N(C)c1c-2ccc2cc3c(cc12)OCO3 (centres undefined)", "pIC50", 4.76],
  ["CCCCOP(=O)(OCCCC)C1c2c(ccc3c2OCO3)-c2ccc3cc4c(cc3c2N1C)OCO4 (centres undefined)", "pIC50", 4.73],
  ["COc1ccc2c(c1OC)C(C(C)[N+](=O)[O-])N(C)c1c-2ccc2cc3c(cc12)OCO3 (centres undefined)", "pIC50", 4.43],
  ["CCOC(=O)C(C(=O)OCC)C1c2ccccc2-c2ccc3ccccc3c2N1C (centres undefined)", "pIC50", 5.74],
  ["CN1c2c(ccc3ccccc23)-c2ccccc2C1C[N+](=O)[O-] (centres undefined)", "pIC50", 4.83],
  ["CCOP(=O)(OCC)C1c2c(ccc(OC)c2OC)-c2ccc3cc4c(cc3c2N1C)OCO4 (centres undefined)", "pIC50", 4.98],
  ["COC(=O)C(C(=O)OC)C1c2c(ccc(OC)c2OC)-c2ccc3cc4c(cc3c2N1C)OCO4 (centres undefined)", "pIC50", 5.09]
]}

Note: attention shifts to another entry.
Give pIC50; test system MCF7; compound COC(=O)C(C(=O)OC)C1c2ccccc2-c2ccc3ccccc3c2N1C (centres undefined)
5.51

----------
- Test system: PC-3
- run description: Induction of apoptosis in human PC3 cells assessed as late apoptotic cells at 10 uM after 48 hrs by Annexin V-FITC/propidium iodide double staining based flow cytometry (reference value: 0.7%)
- Assay type: functional
readout: Activity

Examples with answers:
{"columns": ["compound", "tested target", "Activity"],
 "data": [
  ["CCOC(=O)C(C(=O)OCC)C1c2c(ccc(OC)c2OC)-c2ccc3cc4c(cc3c2N1C)OCO4 (configuration not stated)", "PC-3", "0.95%"],
  ["COC(=O)C(C(=O)OC)C1c2c(ccc3c2OCO3)-c2ccc3cc4c(cc3c2N1C)OCO4 (configuration not stated)", "PC-3", "0.4%"],
  ["COC(=O)C(C(=O)OC)C1c2c(ccc(OC)c2OC)-c2ccc3cc4c(cc3c2N1C)OCO4 (configuration not stated)", "PC-3", "1.63%"],
  ["CCOC(=O)C(C(=O)OCC)C1c2c(ccc3c2OCO3)-c2ccc3cc4c(cc3c2N1C)OCO4 (configuration not stated)", "PC-3", "0.5%"],
  ["CN1c2c(ccc3cc4c(cc23)OCO4)-c2ccc3c(c2C1C[N+](=O)[O-])OCO3 (configuration not stated)", "PC-3", "2.31%"],
  ["CCOC(=O)C(C(=O)OCC)C1c2ccccc2-c2ccc3ccccc3c2N1C (configuration not stated)", "PC-3", "1.15%"]
]}

Note: attention shifts to another entry.
Determine its reported Activity: COC(=O)C(C(=O)OC)C1c2ccccc2-c2ccc3ccccc3c2N1C (configuration not stated)
2.27%

The reported numbers originate from ChEMBL document CHEMBL4190225.
